assay.procedure: Consolidated qualitative solubility results (Tables 6 and 8)
measurement.context: methanol (BP 65° C.); Table 8; numbers are molar concentrations pending investigation
attribute.measured: qualitative solvent solubility overlaid with cocrystallization screens' results

# annotated cases, reported qualitative solvent solubility overlaid with cocrystallization screens' results shown
[[record]]
compound = "O=C1NS(=O)(=O)c2ccccc21"
endpoint_result = "✓"

[[record]]
compound = "O=C(O)C1(c2ccc(-c3ccc(Cl)c(Cl)c3)c(F)c2)CC1"
endpoint_result = "50 mM"

[[record]]
compound = "O=C(O)/C=C/c1ccc(O)c(O)c1"
endpoint_result = "✓"

[[record]]
compound = "NC(=O)c1cccnc1 [nicotinamide]"
endpoint_result = "✓"


Shift focus to the following entry.
QUERY: Look up and report measured qualitative solvent solubility overlaid with cocrystallization screens' results for this entry: COc1cc(C=O)ccc1O
RESULT: ✓
